Tested on: HCV NS5A Replicon GT-5a
METHOD_SUMMARY: HCV double reporter gene replicon assay, GT-5a
Assay type: cell-based
MEASUREMENT_CONTEXT: Hepatitis C virus, genotype 1a / genotype 5a / genotype 6a; GT-5a replicon
MEASURE: EC50 (pM)
Use pM as the unit, but write only the number.

q: Please give the measured EC50 for this compound: COC(=O)N[C@@H](C(=O)N1CC=CC1c1nc(-c2ccc(-c3cc4sc(-c5c[nH]c(C6CCCN6C(=O)[C@H](NC(=O)OC)c6ccccc6)n5)cc4s3)cc2)c[nH]1)c1ccccc1 (stereo partly shown)
a: 23

###

Recorded EC50, one value per entry.
Test system: GT-1a of NS5A Replicon
METHOD_SUMMARY: HCV double reporter gene (Renilla luciferase) replicon assay, GT-1a
Assay type: cell-based, Hepatitis C virus (HCV)
MEASUREMENT_CONTEXT: Hepatitis C virus, GT1A, GT-1a replicon; class symbols; read-out: EC50 For GT-1a of NS5A Replicon
Experimental: Antiviral Assay for Inhibition Activity (EC50): The study is completed by a new constructed double reporter genes replicon assay system, the capacity of viral replicon in infected cell is determined by detecting the reporter gene Renilla luciferase. The relationship of reporter genes, HCV RNA replicon and viral proteins is well linear. 8 gradient concentrations for 2-fold dilution, 3 wells, 3 times repetition and 1 or 2 control drugs are set to finally determine EC50 of compound. […]

Solved entries:
COMPOUND	MEASURE	VALUE
COC(=O)N[C@H](C(=O)N1CC=C[C@H]1c1ncc(-c2cc3sc(-c4ccc(-c5cnc([C@@H]6CCCN6C(=O)[C@@H](NC(=O)OC)C(C)C)[nH]5)cc4)cc3s2)[nH]1)C(C)C	EC50	1 to 999 pM
COC(=O)N[C@H](C(=O)N1CC(OC(=O)N2Cc3cc4c(cc3C2)OCO4)CC1c1nc(-c2ccc3c(c2)Cc2cc(-c4c[nH]c([C@@H]5CCCN5C(=O)[C@@H](NC(=O)OC)C(C)C)n4)ccc2-3)c[nH]1)C(C)C (some centres unmarked)	EC50	1 to 999 pM
CC(C)[C@H](NC(=O)OC(C)(C)C)C(=O)N1CCC[C@H]1c1nc(-c2ccc(-c3ccc(-c4cnc([C@@H]5C[C@@H](OC(=O)N6Cc7cc8c(cc7C6)OCO8)CN5C(=O)[C@@H](NC(=O)OC(C)(C)C)C(C)C)[nH]4)cc3)cc2)c[nH]1	EC50	> 50000 pM
CC(C)[C@H](NC(=O)OC(C)(C)C)C(=O)N1C[C@H](OC(=O)N2Cc3cccc(F)c3C2)CC1c1ncc(-c2ccc(-c3ccc(-c4c[nH]c([C@@H]5CCCN5C(=O)[C@@H](NC(=O)OC(C)(C)C)C(C)C)n4)cc3)cc2)[nH]1 (some centres unmarked)	EC50	> 50000 pM

q: Please give the measured EC50 for this compound: COC(=O)N[C@H](C(=O)N1CC=C[C@H]1c1ncc(-c2ccc(-c3ccc(-c4cnc([C@@H]5CN(C(=O)OC)CN5C(=O)[C@@H](NC(=O)OC)C(C)C)[nH]4)cc3)cc2)[nH]1)C(C)C
a: 1 to 999 pM
